Numbers sourced from paper PMC10373183.

# protocol summary: LDH release cytotoxicity assay
# Assay type: cell-based
# assay setup: human, U937 cells
readout type: inhibition at 4 h, 50 µM (%)
Response body: numeric value in %, unit text excluded.

Illustrative cases are given below, each with its answer.
Cc1nn(C)c(C)c1S(=O)(=O)NCCc1ccc(Cl)cc1 [MR-S1-6] | -2
Cc1nn(C)c(C)c1S(=O)(=O)NCCc1ccccc1 [MR-S1-4] | -0.9
Cc1n[nH]c(C)c1S(=O)(=O)NCCc1c[nH]c2ccccc12 [MR-S1-16] | -1.6
Cc1nn(C)c(C)c1S(=O)(=O)NCCc1c[nH]c2ccccc12 [MR-S1-17] | -2
Cc1n[nH]c(C)c1S(=O)(=O)NCCc1ccccc1 [MR-S1-3] | -1.3

Now turn to the next compound.
input: Which inhibition at 4 h, 50 µM value is on record for CCOCCn1c(C2CCN(S(=O)(=O)c3c(C)n[nH]c3C)CC2)nc2ccccc21 [MR-S1-19] ?
output: -1.8
